Readings of apparent KD of MS2 coat protein for the listed sequences
- System: MS2 coat protein
- method: apparent KD of MS2 coat protein; designed switch direction (-1 OFF switch, 1 ON switch): -1; higher = weaker reporter binding
- test_parameters: input ligand: FMN 200 uM

{"sequence_entry": "GCGCCAUCGUGAGAUGGCGUAAUUACAUGAGGAUCACCCAUGUAGGAUAUCGAUUGCUUUGCAGUCGAGAAGGGCGUGAUAAGU [JL ENG3 3.71] (Eterna round: R96, puzzle: Exclusion NG 3)", "scale_unit": "µM", "apparent KD of MS2 coat protein": 0.086}
{"sequence_entry": "GGAGGUAUUUAGGAUAUGAUGUACGACGCAGGUUCAGAAGGGAGUACAUGAGGAUCACCCAUGUGGCCUCAUCC [Eternabot (L2) Solution 47] (Eterna round: R97, puzzle: Exclusion 6)", "scale_unit": "µM", "apparent KD of MS2 coat protein": 1.2}
{"sequence_entry": "CGUCUGUGAGGAUAUGGUAUCGUUUACAUGAGGAUCACCCAUGUUACAUGGGACUAGAGACUAGAAGGUACUGACG [EX5 #47] (Eterna round: R97, puzzle: Exclusion 5)", "scale_unit": "µM", "apparent KD of MS2 coat protein": 0.628}
{"sequence_entry": "AAUAACAUGUUGAUCAAAUACAUGAGGAUCACCCAUGUAUGCUUUUUGCUCGAUAAGAUCAACUAAUAAUAAUAAUA [StovNew/1-A] (Eterna round: R97, puzzle: Sensor, turn-off variant 1)", "scale_unit": "µM", "apparent KD of MS2 coat protein": 0.014}
{"sequence_entry": "CGAUGCUCGAAUCCACAUGAGGAUCACCCAUGUCGAGUUAGCGAGGAUAUCGGAGACACAUAGUAUGAGAAGGCGCGAACCUGA [Ex NG3 #23] (Eterna round: R96, puzzle: Exclusion NG 3)", "scale_unit": "µM", "apparent KD of MS2 coat protein": 0.0155}

---

Readings of apparent KD of K4 kissing-loop reporter for the listed sequences
- Tested on: K4 kissing-loop RNA reporter
- method: apparent KD of K4 kissing-loop reporter; higher = weaker reporter binding
- test_parameters: Eterna round: R107; input ligand: none

{"sequence_entry": "GCCCGGUGAAUCCGCCAAGAUAGACACCGUCGAGGACCGGUACGGCCGCCACUCGAGUACGAGUGAUGUUCGUACGCGGUGUCGA [Onedzate]", "apparent KD of K4 kissing-loop reporter, nM": 657}
{"sequence_entry": "GAUUGGCGGACGGCCGCCACUCGGACGAGUCACAGUGAUGUUGUGGUUUGCCAGUCGACUUCAUCGAGGACCGGGUUUGUCGGGC [Exclusion Tryptophan B GF 21]", "apparent KD of K4 kissing-loop reporter, nM": 497}
{"sequence_entry": "GAUUCAGUGAUGUUGGAAGGCGAGCGGGAUACCAGCCGAGACUCAGGCCCUUGGCAGCCCACAUAUCCCAGGUAGAUAGUAGAUC [Same State - Theophylline A (Freestyle 8)]", "apparent KD of K4 kissing-loop reporter, nM": 129}
{"sequence_entry": "ACGCUGGAUGAAUAACAUCUAGCGAAAAUUCGAGGACCGGUACGGCCGCCACUCGAGCUAACUGCGAGUGAUGUUCGAUAAUAAA [Mat - Mod of OpenEnded 3 - D6]", "apparent KD of K4 kissing-loop reporter, nM": 309}
{"sequence_entry": "UGUAAGCGCGUAGAUACCAGCAGACGAGUGAUGUUCGAGAGAUUAAGGAAAAGAAAGUAAUGCCCUUGGCAGCUAAUCAUAAGCG [whbob_Ex_Theo_B_sa94]", "apparent KD of K4 kissing-loop reporter, nM": 264}
{"sequence_entry": "ACGUAGUUCUAGGAUACCAGCCAAGGUCGCCAGGACAAAAGUCCUGGCGCCAGUGAUGUUGGCCCUUGGCAGCCUAGAACUACGA [Omei KL Theo B Exc B v6]", "apparent KD of K4 kissing-loop reporter, nM": 176}
{"sequence_entry": "UCACAAGUUAACUAGUGAUGUUAGUUAGUACGAGGACCGGUACGGCCGCCACUCGAAAAGUGGUUUUACGGACUUUUGGGCAGGC [theeternabot_sameState_KL_Trp_A_17]", "apparent KD of K4 kissing-loop reporter, nM": 268}
{"sequence_entry": "CCCGCGUCGUUAGUGAUGUUGACUUCUGAUACCAGUCGCAGGUAGGACCCUUGGCAGCAGCAGUUUUGUUAUAUGUAGGAUCCAG [theeternabot_exclusion_KL_Theo_A_36]", "apparent KD of K4 kissing-loop reporter, nM": 717}
{"sequence_entry": "AAUAACUAGUAUAUUUUUAAUAAUACAGAUACCAGUGAUAAUAGACACCCUUGGCAGCUGAUCGAGUGAUGUUCGUUUAUUUUAA [#11 K4 Theophylline A Same State]", "apparent KD of K4 kissing-loop reporter, nM": 85}
{"sequence_entry": "AAAAUAAAUCAGUGAUGUUGGUAUCUGGAUACCAGCGAUAAUAGUCGCCCUUGGCAGCCAUGGACGUACAAAAUAAGUACGUCCU [MatMod 19 - Jieux - Same State - Theophylline A]", "apparent KD of K4 kissing-loop reporter, nM": 183}
{"sequence_entry": "GGAUAGGACAGAGGAUAUGGCAGUCUACAAAGUAGGCUGAAAUAAAUCCUUGAAUGGAGUGAUGUUCCAGAAGGCUGUCCUAUCG [FmnBX 23 #SwitchBubble #StaticStem #Palindromic]", "apparent KD of K4 kissing-loop reporter, nM": 158}

---

- Test system: MS2 coat protein
- method: apparent KD of MS2 coat protein; designed switch direction (-1 OFF switch, 1 ON switch): 1; higher = weaker reporter binding
- test_parameters: input ligand: none

{"sequence_entry": "UUAUCAUUGCAAGGAUAUUGAUUACAUGAGGAUCACCCAUGUUAAUGAACACUAUGUACUACUAACAAGAAGGUGCUAUAAAUU [JR_SSNG2_Sub041] (Eterna round: R96, puzzle: Same State NG 2)", "apparent KD of MS2 coat protein": "0.0343 µM"}
{"sequence_entry": "GCUCGGAUGAUGGCCCACAUGAGGAUCACCCAUGUGAGUGGGCAGGAUAUCUAGAUUAAGGAUGUAGAGAAGGGCCUACCGAGC [SameState NG3 #34] (Eterna round: R96, puzzle: Same State NG 3)", "apparent KD of MS2 coat protein": "0.759 µM"}
{"sequence_entry": "AUGUAUCGCCUCGAGGAUAUCCUGUCAUGCACAUGAGGAUCACCCAUGUAAGAGCGAGUUUAAUGGGAGAAGGCGAGUUCUCGGU [JR_SS002_Sub1707] (Eterna round: R96, puzzle: Same State 2)", "apparent KD of MS2 coat protein": "0.106 µM"}

---

Readings of apparent KD of K4 kissing-loop reporter for the listed sequences
- System: K4 kissing-loop RNA reporter
- method: apparent KD of K4 kissing-loop reporter; higher = weaker reporter binding
- test_parameters: Eterna round: R107; input ligand: arginine 13.2 mM

{"sequence_entry": "GAUUGGCGGACGGCCGCCACUCGGACGAGUCACAGUGAUGUUGUGGUUUGCCAGUCGACUUCAUCGAGGACCGGGUUUGUCGGGC [Exclusion Tryptophan B GF 21]", "target_entity": "K4 kissing-loop RNA reporter", "apparent KD of K4 kissing-loop reporter": "407 nM"}
{"sequence_entry": "UGGAGUUGACGAAAAGUCAACUCCUGGGAAGGAGCGGACGAAAGUCCAGGUAGGUCGCCCACUACCAGUGAUGUUGGUACUUCAA", "target_entity": "K4 kissing-loop RNA reporter", "apparent KD of K4 kissing-loop reporter": "274 nM"}
{"sequence_entry": "CCGUGGCCGACGGCCGCCACUCUUACCAUCCAGCGGAGUGAUGUUCCGCCCGAGUGAUGUUCGGAGAGGACCGGGUCUGUUGUAA [Exclusion Tryptophan B GF30]", "target_entity": "K4 kissing-loop RNA reporter", "apparent KD of K4 kissing-loop reporter": "103 nM"}

---

- Test system: K4 kissing-loop RNA reporter;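 note: bound reporter read as fluorescence of individual clusters on recovered sequencing chips by microscopy, with normalized cluster intensities fitted with a binding model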
- method: apparent KD of K4 kissing-loop reporter; higher = weaker reporter binding
- test_parameters: Eterna round: R107; input ligand: FMN 200 uM

{"sequence_entry": "AUAUGCAGGAGAAGGAGCGUCGUUUCAAGUGAUGUUUGCAAGCGAGCUUACUAUAUAAGACGACAGGUAGGUCGCUCCUGCGUAA [#06 K4 Arginine B Exclusion]", "scale_unit": "nM", "apparent KD of K4 kissing-loop reporter": 166}
{"sequence_entry": "CGAUGGAUGGCAGGAUAUAGACAUUGAGUGAUGUUCGAUGAUUAUCCAUAUUCCCGUCACCUAAGACUAGAAGGGCCAUCCAUCG", "scale_unit": "nM", "apparent KD of K4 kissing-loop reporter": 554}
{"sequence_entry": "UCUGUUUCGAUGGAUACCAGUCGGCGAAUCACAGCUAUUAGCCUAGUGAUGUUAGGAUCGGACCCUUGGCAGCCAAUGGAUGCGG [theeternabot_sameState_KL_Theo_B_14]", "scale_unit": "nM", "apparent KD of K4 kissing-loop reporter": 921}
{"sequence_entry": "AUGGGCGAGGUAACGUGGAUAUCUCGUCGCAAGGAUAUCUGGAAACAGAGAAGGUGCUACAUUACCGGCAGUGAUGUUGCUGACC", "scale_unit": "nM", "apparent KD of K4 kissing-loop reporter": 959}
{"sequence_entry": "AGUAUGUAAUAUGGCAUAUUUAGAACUGAAGGAGCGCCGAAUAAGGCAGGUAGGUCGCGGAAAUAUGAGUGAUGUUCAUGUUUAA [KL-SSArg-A25]", "scale_unit": "nM", "apparent KD of K4 kissing-loop reporter": 88}
{"sequence_entry": "ACGUCAUAUGUAAUGGUGGUUUCGAUCGAUACCAGUAGCGAGAGUUACCCUUGGCAGCGACAUGAGUGAUGUUCAUGUAUGAAGA [KL-XTheo-A2 #analogue]", "scale_unit": "nM", "apparent KD of K4 kissing-loop reporter": 116}
{"sequence_entry": "GGAUAGGAUAGAGGAUAUGGAAAACACAGAAAUGACUUGUUGUGUUUAUCCAUAGGGAGUGAUGUUCCAGAAGGCUGUCCUAUCG [MatMod 21 - Jieux - Exclusion - FMN B]", "scale_unit": "nM", "apparent KD of K4 kissing-loop reporter": 289}
{"sequence_entry": "GCAGACACGCAGUGAUGUUGCGAAACGGAAGGAGCGCGUGAAAACGCAGGUAGGUCGCCGACACAUAAAUUAUAAUUUUGUUUGC [Arginine A K4 14]", "scale_unit": "nM", "apparent KD of K4 kissing-loop reporter": 253}
{"sequence_entry": "CCUAUCUCAUACGAUACCAGUGAUUAACCAGUGAUGUUGGAAUAACCAAGGAAUAUUUUUCACCCUUGGCAGCGUAUGGGAUAGG [Ex Theophylline B K4 26]", "scale_unit": "nM", "apparent KD of K4 kissing-loop reporter": 78}
{"sequence_entry": "UGAUUAAGCAGUGAUGUUGCAAGUAAUGAUACCAGUUAAGAAGAGAACCCUUGGCAGCAUAAAGUGCGCUCUGAUGAGUGUGCUU [whbob_SS_Theo_A_w53]", "scale_unit": "nM", "apparent KD of K4 kissing-loop reporter": 101}
{"sequence_entry": "UGUAUGUGAUUUGAUACCAGACCAUCUUGUGAGAAGUGAGUGAUGUUUAUUUUGGUUUGGGUCCCUUGGCAGCAAAUCGCAUACU [KL-SSTheoB23]", "scale_unit": "nM", "apparent KD of K4 kissing-loop reporter": 777}
{"sequence_entry": "UUUUUAUGCAGUGAUGUUGCUAAUAUAACAGAGGAUAUGCAUUAAUGCAGAAGGCUGAAAUACUAUACUUUAAUAUAUUAAAUUU [JR_SSFMNA_Sub015]", "scale_unit": "nM", "apparent KD of K4 kissing-loop reporter": 94.3}
